Source: patent US10202593B2

test system: LPETG (Abz-LPETGK(Dnp)-CONH2); experiment: In vitro sortase kinetics HPLC assay, LPETG substrate; type: biochemical; details: substrate wt (LPETG); read-out: Km, LxExG
Quantity kind: Km
Write the numeric value and append its unit.

Ask | Which Km value is on record for 2A.6A: 5mut + A104H K138V K162R I182V (protein) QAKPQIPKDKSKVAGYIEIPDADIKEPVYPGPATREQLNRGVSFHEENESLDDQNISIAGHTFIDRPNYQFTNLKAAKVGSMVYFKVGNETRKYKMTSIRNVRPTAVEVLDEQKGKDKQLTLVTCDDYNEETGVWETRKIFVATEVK ?
Reply | 3.29 mM

Ask | Fill in the blank: the reported Km of eSrtA(2A-5): 5mut + R99H A104H K138I K162R I182V (protein) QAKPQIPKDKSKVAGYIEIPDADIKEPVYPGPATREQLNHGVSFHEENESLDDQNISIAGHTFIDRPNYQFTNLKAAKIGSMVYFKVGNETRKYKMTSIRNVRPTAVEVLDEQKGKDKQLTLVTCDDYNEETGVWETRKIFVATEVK is ____.
Reply | 4.9 mM
